tested on: His-TRAF2_311-501; experiment: Peptide array, TRAF2 binding; set-up: key: +: Interaction with TRAF6 or TRAF2 isindicated according to the results shown in Figure 1c.; -: Interaction with TRAF6 or TRAF2 isindicated according to the results shown in Figure 1c; settings: immobilized peptide, 10 µg per mL His-TRAF2, 4 h RT; two independent experiments
valueType: T2 interaction (peptide array)

These recorded examples may help you get a feel for the data.
substance="GSNTAAPVQETLHGCQPVTQEDGKESRISV [peptide 4, CD40 244-273]" valuetype="T2 interaction (peptide array)" value=+
substance="DDSLPHPQQATDDSGHESDSNSNEGRHHLL [peptide 6, LMP1 198-227]" valuetype="T2 interaction (peptide array)" value=+
substance="KQEPQEINFPDDLPGSNTAAPVQETLHGCQ [peptide 1, CD40 amino acids 230-259]" valuetype="T2 interaction (peptide array)" value=+
substance="PHLPTLLLGSSGSGGDDDDPHGPVQLSYYD [peptide 11, LMP1 357-386 (30mer)]" valuetype="T2 interaction (peptide array)" value=-
substance="PHLPTLLLGSSGSGGDDDDPHGAVALAYYD [peptide 12, LMP1 357-386, A379xAxA]" valuetype="T2 interaction (peptide array)" value=-

Ask: For the substance shown here, … GDDDDPHGPVQLSYYD [peptide 8, LMP1 371-386 (16mer)] , give the reported T2 interaction (peptide array).
Result: -

Ask: Now this one: 2: CD40 230-259, A250xAxA (KQEPQEINFPDDLPGSNTAAAVAEALHGCQ; UniProt P25942 230-259, looked up, variant P250A Q252A T254A) [compound 2]
Result: -

Ask: Moving on to the next substance: KAEAQAINFPDDLPGSNTAAPVQETLHGCQ [peptide 3, CD40 230-259, A231xAxA]
Result: +

Ask: Proceed to … GDDDDPHGPVQLSAAD [peptide 9, LMP1 371-386, A384A385]
Result: -

Ask: Please answer likewise for GSNTAAAVAEALHGCQPVTQEDGKESRISV [peptide 5, CD40 244-273, A250xAxA]
Result: -
